Tested on: HCC-15
Assay: relative viability (nuclei count vs DMSO), 5 days (fraction); higher = more cells survive
Conditions: first compound 0.08 µM
MEASURE: relative viability
Just the number, please, no unit after it.

Exercise: Record request: relative viability value, item COc1nc(C)cnc1NS(=O)(=O)c1cccnc1-c1ccc(-c2nnco2)cc1 [Zibotentan] + CCNC(=O)c1noc(-c2cc(C(C)C)c(O)cc2O)c1-c1ccc(CN2CCOCC2)cc1 [Luminespib] (partner 0.01 µM)
Solution: 0.244

Exercise: Record request: relative viability value, item O=c1cc(-c2cccc3c2Sc2ccccc2S3)oc(N2CCOCC2)c1 + CC(C)C[C@H](NC(=O)[C@H](Cc1ccccc1)NC(=O)c1cnccn1)B(O)O [Bortezomib] (partner 0.002 µM)
Solution: 1.07

Exercise: Record request: relative viability value, item O=c1cc(-c2cccc3c2Sc2ccccc2S3)oc(N2CCOCC2)c1 + Cc1nc(NC(=O)N2CCC[C@H]2C(N)=O)sc1-c1ccnc(C(C)(C)C(F)(F)F)c1 [Alpelisib] (partner 2 µM)
Solution: 0.896

Exercise: Record request: relative viability value, item COc1nc(C)cnc1NS(=O)(=O)c1cccnc1-c1ccc(-c2nnco2)cc1 [Zibotentan] + C[C@@H](Oc1cc(-c2cnn(C3CCNCC3)c2)cnc1N)c1c(Cl)ccc(F)c1Cl [Crizotinib] (partner 1 µM)
Solution: 0.918

###

System: HCC-78
Assay: relative viability (nuclei count vs DMSO), 5 days (fraction); higher = more cells survive
Conditions: first compound 0.08 µM
Rule for this label: True means relative viability is less than 0.7; False means relative viability is at least 0.7.

Exercise: State whether 0.7 exceeds relative viability recorded for O=c1cc(-c2cccc3c2Sc2ccccc2S3)oc(N2CCOCC2)c1 + NC(=O)Nc1cc(-c2cccc(F)c2)sc1C(=O)N[C@H]1CCCNC1 [AZD7762] (partner 0.2 µM) .
Solution: True

Exercise: State whether 0.7 exceeds relative viability recorded for COc1nc(C)cnc1NS(=O)(=O)c1cccnc1-c1ccc(-c2nnco2)cc1 [Zibotentan] + Nc1ncn([C@H]2C[C@H](O)[C@@H](CO)O2)c(=O)n1 [Decitabine] (partner 2 µM) .
Solution: False

Exercise: State whether 0.7 exceeds relative viability recorded for O=c1cc(-c2cccc3c2Sc2ccccc2S3)oc(N2CCOCC2)c1 + Nc1ncn([C@H]2C[C@H](O)[C@@H](CO)O2)c(=O)n1 [Decitabine] (partner 2 µM) .
Solution: True

Exercise: State whether 0.7 exceeds relative viability recorded for O=c1cc(-c2cccc3c2Sc2ccccc2S3)oc(N2CCOCC2)c1 + O=C(CCCCCCC(=O)Nc1ccccc1)NO [Vorinostat] (partner 1 µM) .
Solution: True

Exercise: State whether 0.7 exceeds relative viability recorded for O=c1cc(-c2cccc3c2Sc2ccccc2S3)oc(N2CCOCC2)c1 + N=C(N)NC(=N)NCCc1ccccc1 [Phenformin] (partner 250 µM) .
Solution: True

###

Test system: HCC-366
Assay: relative viability (nuclei count vs DMSO), 5 days (fraction); higher = more cells survive
Details: first compound 2.53 µM
MEASURE: relative viability

Exercise: Lookup: relative viability / HCC-366 / O=c1cc(-c2cccc3c2Sc2ccccc2S3)oc(N2CCOCC2)c1 + Cc1nc(Nc2ncc(C(=O)Nc3c(C)cccc3Cl)s2)cc(N2CCN(CCO)CC2)n1 [Dasatinib] (partner 0.075 µM)
Solution: 0.666

Exercise: Lookup: relative viability / HCC-366 / O=c1cc(-c2cccc3c2Sc2ccccc2S3)oc(N2CCOCC2)c1 + C[C@]1(O)C[C@@H](c2nc(-c3ccc4ccc(-c5ccccc5)nc4c3)c3c(N)nccn32)C1 [Linsitinib] (partner 1 µM)
Solution: 0.744

Exercise: Lookup: relative viability / HCC-366 / O=c1cc(-c2cccc3c2Sc2ccccc2S3)oc(N2CCOCC2)c1 + CC(C)C[C@H](NC(=O)[C@H](Cc1ccccc1)NC(=O)c1cnccn1)B(O)O [Bortezomib] (partner 0.002 µM)
Solution: 1.03

###

System: COR-L 105
Assay: relative viability (nuclei count vs DMSO), 5 days (fraction); higher = more cells survive
Conditions: first compound 0.03162 µM
MEASURE: relative viability
Just the number, please, no unit after it.

Exercise: Record request: relative viability value, item CCN(CC)CCCCNc1ncc2cc(-c3cc(OC)cc(OC)c3)c(NC(=O)NC(C)(C)C)nc2n1 + CC(=O)Nc1cccc(-n2c(=O)n(C3CC3)c(=O)c3c(Nc4ccc(I)cc4F)n(C)c(=O)c(C)c32)c1 [Trametinib] (partner 0.02 µM)
Solution: 0.406

Exercise: Record request: relative viability value, item O=c1cc(N2CCOCC2)oc2c(-c3cccc4c3sc3ccccc34)cccc12 + CCNC(=O)c1noc(-c2cc(C(C)C)c(O)cc2O)c1-c1ccc(CN2CCOCC2)cc1 [Luminespib] (partner 0.01 µM)
Solution: 0.739

Exercise: Record request: relative viability value, item CCN(CC)CCCCNc1ncc2cc(-c3cc(OC)cc(OC)c3)c(NC(=O)NC(C)(C)C)nc2n1 + C[C@]1(O)C[C@@H](c2nc(-c3ccc4ccc(-c5ccccc5)nc4c3)c3c(N)nccn32)C1 [Linsitinib] (partner 1 µM)
Solution: 0.794

Exercise: Record request: relative viability value, item CCN(CC)CCCCNc1ncc2cc(-c3cc(OC)cc(OC)c3)c(NC(=O)NC(C)(C)C)nc2n1 + CCNC(=O)c1noc(-c2cc(C(C)C)c(O)cc2O)c1-c1ccc(CN2CCOCC2)cc1 [Luminespib] (partner 0.01 µM)
Solution: 0.698

Exercise: Record request: relative viability value, item O=c1cc(N2CCOCC2)oc2c(-c3cccc4c3sc3ccccc34)cccc12 + CS(=O)(=O)N1CCN(Cc2cc3nc(-c4cccc5[nH]ncc45)nc(N4CCOCC4)c3s2)CC1 [Pictilisib] (partner 1 µM)
Solution: 0.394

Exercise: Record request: relative viability value, item O=c1cc(N2CCOCC2)oc2c(-c3cccc4c3sc3ccccc34)cccc12 + O=C(c1cc(Cc2n[nH]c(=O)c3ccccc23)ccc1F)N1CCN(C(=O)C2CC2)CC1 [Olaparib] (partner 8 µM)
Solution: 0.756

Exercise: Record request: relative viability value, item CCN(CC)CCCCNc1ncc2cc(-c3cc(OC)cc(OC)c3)c(NC(=O)NC(C)(C)C)nc2n1 + Nc1nc2[nH]cc(CCc3ccc(C(=O)N[C@@H](CCC(=O)O)C(=O)O)cc3)c2c(=O)[nH]1 [Pemetrexed] (partner 0.2 µM)
Solution: 1.12

Exercise: Record request: relative viability value, item O=c1cc(N2CCOCC2)oc2c(-c3cccc4c3sc3ccccc34)cccc12 + COc1cc2c(Oc3ccc(NC(=O)C4(C(=O)Nc5ccc(F)cc5)CC4)cc3F)ccnc2cc1OCCCN1CCOCC1 [Foretinib] (partner 0.25 µM)
Solution: 1.1

Exercise: Record request: relative viability value, item O=c1cc(N2CCOCC2)oc2c(-c3cccc4c3sc3ccccc34)cccc12 + CS(=O)(=O)CCNCc1ccc(-c2ccc3ncnc(Nc4ccc(OCc5cccc(F)c5)c(Cl)c4)c3c2)o1 [Lapatinib] (partner 2 µM)
Solution: 0.327

Exercise: Record request: relative viability value, item O=c1cc(N2CCOCC2)oc2c(-c3cccc4c3sc3ccccc34)cccc12 + COc1cccc2cc(-c3nc([C@H]4CC[C@H](C(=O)O)CC4)n4ncnc(N)c34)[nH]c12 [OSI-027] (partner 0.5 µM)
Solution: 0.825

###

Test system: LXF-289
Assay: relative viability (nuclei count vs DMSO), 5 days (fraction); higher = more cells survive
Conditions: first compound 0.08 µM
Rule for this label: yes (1) means relative viability is less than 0.9; no (0) means relative viability is at least 0.9.

Exercise: State whether 0.9 exceeds relative viability recorded for O=c1cc(-c2cccc3c2Sc2ccccc2S3)oc(N2CCOCC2)c1 + Cc1cc(Nc2cc(N3CCN(C)CC3)nc(Sc3ccc(NC(=O)C4CC4)cc3)n2)n[nH]1 [Tozasertib] (partner 0.1 µM) .
Solution: yes (1)

Exercise: State whether 0.9 exceeds relative viability recorded for COc1nc(C)cnc1NS(=O)(=O)c1cccnc1-c1ccc(-c2nnco2)cc1 [Zibotentan] + COc1cccc2cc(-c3nc([C@H]4CC[C@H](C(=O)O)CC4)n4ncnc(N)c34)[nH]c12 [OSI-027] (partner 0.5 µM) .
Solution: yes (1)

Exercise: State whether 0.9 exceeds relative viability recorded for COc1nc(C)cnc1NS(=O)(=O)c1cccnc1-c1ccc(-c2nnco2)cc1 [Zibotentan] + NC(=O)Nc1cc(-c2cccc(F)c2)sc1C(=O)N[C@H]1CCCNC1 [AZD7762] (partner 0.2 µM) .
Solution: no (0)

Exercise: State whether 0.9 exceeds relative viability recorded for COc1nc(C)cnc1NS(=O)(=O)c1cccnc1-c1ccc(-c2nnco2)cc1 [Zibotentan] + CCNC(=O)c1noc(-c2cc(C(C)C)c(O)cc2O)c1-c1ccc(CN2CCOCC2)cc1 [Luminespib] (partner 0.01 µM) .
Solution: yes (1)

Exercise: State whether 0.9 exceeds relative viability recorded for COc1nc(C)cnc1NS(=O)(=O)c1cccnc1-c1ccc(-c2nnco2)cc1 [Zibotentan] + CC1(C)CCC(c2ccc(Cl)cc2)=C(CN2CCN(c3ccc(C(=O)NS(=O)(=O)c4ccc(N[C@H](CCN5CCOCC5)CSc5ccccc5)c(S(=O)(=O)C(F)(F)F)c4)cc3)CC2)C1 [Navitoclax] (partner 0.5 µM) .
Solution: no (0)
